Cited source: patent US10434181B2

- assay text: in vivo
- test conditions: male, Sprague Dawley, rat, plasma, iv, 0.5 mg/kg
readout: MRT inf (min)
Answers are plain numbers, in min.

{"molecule": "CCN(CCNC(=O)c1cc(Cl)c(N)cc1OC)CCOCCOCCOCCOCCOCCOCCOCCOC [mPEG8-N-Metoclopramide]", "MRT inf / min": 146}
{"molecule": "CCN(CCNC(=O)c1cc(Cl)c(N)cc1OC)CCOCCOCCOCCOC [mPEG4-N-Metoclopramide]", "MRT inf / min": 33.6}
{"molecule": "CCN(CCNC(=O)c1cc(Cl)c(N)cc1OC)CCOC [mPEG1-N-Metoclopramide]", "MRT inf / min": 27.6}

// query MRT inf value for entry CCN(CC)CCNC(=O)c1cc(Cl)c(N)cc1OC [Metoclopramide, reference compound]
// result 32.4

###

- assay text: Rat PK (intravenous and oral)
- test conditions: intravenous, 0.5 mg/kg
Answer each item with its documented CLRen.
Give bare numbers, in mL/min/kg.

Some compounds with known CLRen results, for comparison:
{"compound": "CCN(CCNC(=O)c1cc(Cl)c(N)cc1OC)CCOCCOCCOCCOC [mPEG4-N-Metoclopramide]", "CLRen [mL/min/kg]": 9.0}
{"compound": "CCN(CCNC(=O)c1cc(Cl)c(N)cc1OC)CCOCCOCCOCCOCCOCCOCCOCCOC [mPEG8-N-Metoclopramide]", "CLRen [mL/min/kg]": 0.54}

Now take the following compound into account.
// query CLRen value for entry CCN(CCNC(=O)c1cc(Cl)c(N)cc1OC)CCOC [mPEG1-N-Metoclopramide]
// result 4.4

###

- test target: dopamine 2S receptor (Homo sapiens)
- Sequence (P14416 1-414 isoform P14416-2): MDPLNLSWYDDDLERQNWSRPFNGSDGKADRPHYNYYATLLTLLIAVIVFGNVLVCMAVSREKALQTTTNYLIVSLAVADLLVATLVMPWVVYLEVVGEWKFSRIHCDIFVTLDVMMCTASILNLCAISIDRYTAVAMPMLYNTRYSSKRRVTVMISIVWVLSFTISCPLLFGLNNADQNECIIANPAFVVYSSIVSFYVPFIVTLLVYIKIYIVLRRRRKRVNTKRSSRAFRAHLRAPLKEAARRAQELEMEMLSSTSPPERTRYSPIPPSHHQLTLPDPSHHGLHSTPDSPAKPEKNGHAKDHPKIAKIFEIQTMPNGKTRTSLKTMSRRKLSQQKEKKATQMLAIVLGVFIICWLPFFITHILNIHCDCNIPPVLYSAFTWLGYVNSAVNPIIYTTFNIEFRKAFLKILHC
- assay text: β-Arrestin functional assay (dopamine), antagonist mode
- test conditions: β-arrestin interaction, CHO-K1 cells expressing D2S, dopamine at EC80 (400 nM)
Answer each item with its documented IC50.
One number for each entry, in µM.

Some molecules with known IC50 results, for comparison:
{"molecule": "CCN(CCNC(=O)c1cc(Cl)c(N)cc1OC)CCOCCOCCOCCOCCOC [mPEG5-N-Metoclopramide]", "IC50 [µM]": 3.62}
{"molecule": "CCN(CCNC(=O)c1cc(Cl)c(N)cc1OC)CCOCCOCCOCCOCCOCCOCCOC [mPEG7-N-Metoclopramide]", "IC50 [µM]": 8.18}
{"molecule": "CCN(CCNC(=O)c1cc(Cl)c(N)cc1OC)CCOCCOCCOCCOC [mPEG4-N-Metoclopramide]", "IC50 [µM]": 3.04}
{"molecule": "CCN(CCNC(=O)c1cc(Cl)c(N)cc1OC)CCOCCOC [mPEG2-N-Metoclopramide]", "IC50 [µM]": 0.786}
{"molecule": "CCN(CCNC(=O)c1cc(Cl)c(N)cc1OC)CCOCCOCCOCCOCCOCCOCCOCCOCCOC [mPEG9-N-Metoclopramide]", "IC50 [µM]": 7.22}

Now take the following molecule into account.
// query // lookup IC50 | system=dopamine 2S receptor (Homo sapiens) | key= CCN(CCNC(=O)c1cc(Cl)c(N)cc1OC)CCOC [mPEG1-N-Metoclopramide]
// result 0.345

###

- test target: dopamine 2L receptors (Homo sapiens)
- Sequence (P14416 whole entry): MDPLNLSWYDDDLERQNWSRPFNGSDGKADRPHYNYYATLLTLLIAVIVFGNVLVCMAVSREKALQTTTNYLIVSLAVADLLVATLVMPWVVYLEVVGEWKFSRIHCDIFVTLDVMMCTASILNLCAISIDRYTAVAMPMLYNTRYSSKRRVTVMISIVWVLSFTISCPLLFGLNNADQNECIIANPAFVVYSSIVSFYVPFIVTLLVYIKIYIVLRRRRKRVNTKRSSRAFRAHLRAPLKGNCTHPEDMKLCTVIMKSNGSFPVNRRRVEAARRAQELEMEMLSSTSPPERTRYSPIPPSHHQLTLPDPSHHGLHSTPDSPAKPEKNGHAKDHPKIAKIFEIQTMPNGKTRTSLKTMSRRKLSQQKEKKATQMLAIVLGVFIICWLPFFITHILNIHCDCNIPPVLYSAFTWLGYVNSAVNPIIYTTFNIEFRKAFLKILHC
- assay text: Competition binding assay (dopamine 2L receptors), [3H]methylspiperone
- Design: expressed in transfected cells
- test conditions: IC50 relative to metoclopramide, D2L binding
Class membership depends on Fold-change Relative to Parent alone; the intervals are low (below 40), middle (40 to below 100), high (100 or more)

Example entries and their recorded answers appear below.
{"compound": "CCN(CCNC(=O)c1cc(Cl)c(N)cc1OC)CCOCCOCCOCCOCCOCCOCCOCCOCCOC [mPEG9-N-Metoclopramide]", "classification": "high"}
{"compound": "CCN(CCNC(=O)c1cc(Cl)c(N)cc1OC)CCOCCOC [mPEG2-N-Metoclopramide]", "classification": "low"}
{"compound": "CCN(CCNC(=O)c1cc(Cl)c(N)cc1OC)CCOCCOCCOCCOCCOCCOC [mPEG6-N-Metoclopramide]", "classification": "middle"}

// query Input CCN(CCNC(=O)c1cc(Cl)c(N)cc1OC)CCOCCOCCOCCOCCOCCOCCOC [mPEG7-N-Metoclopramide] ; output its category
// result high

// query Try CCN(CCNC(=O)c1cc(Cl)c(N)cc1OC)CCOCCOCCOCCOC [mPEG4-N-Metoclopramide] next.
// result low

// query Try CCN(CCNC(=O)c1cc(Cl)c(N)cc1OC)CCOCCOCCOCCOCCOCCOCCOCCOC [mPEG8-N-Metoclopramide] next.
// result middle

// query Try CCN(CCNC(=O)c1cc(Cl)c(N)cc1OC)CCOC [mPEG1-N-Metoclopramide] next.
// result low

###

Target or system 5HT4B receptors (serotonin 4B receptors) (Homo sapiens, UniProt Q13639): recorded log10 IC50 listed per item.
Give log10 of IC50, with IC50 taken in µM.

{"molecule": "CCN(CCNC(=O)c1cc(Cl)c(N)cc1OC)CCOCCOCCOCCOC [mPEG4-N-Metoclopramide]", "value measured": 1.49}
{"molecule": "CCN(CCNC(=O)c1cc(Cl)c(N)cc1OC)CCOC [mPEG1-N-Metoclopramide]", "value measured": 1.29}
{"molecule": "CCN(CCNC(=O)c1cc(Cl)c(N)cc1OC)CCOCCOCCOCCOCCOCCOCCOCCOC [mPEG8-N-Metoclopramide]", "value measured": 2.26}
{"molecule": "CCN(CCNC(=O)c1cc(Cl)c(N)cc1OC)CCOCCOCCOCCOCCOC [mPEG5-N-Metoclopramide]", "value measured": 1.76}
{"molecule": "CCN(CCNC(=O)c1cc(Cl)c(N)cc1OC)CCOCCOCCOCCOCCOCCOC [mPEG6-N-Metoclopramide]", "value measured": 1.76}

Please report log10 IC50 for every entry that follows.
1. CCN(CCNC(=O)c1cc(Cl)c(N)cc1OC)CCOCCOCCOCCOCCOCCOCCOC [mPEG7-N-Metoclopramide]
2. CCN(CCNC(=O)c1cc(Cl)c(N)cc1OC)CCOCCOCCOC [mPEG3-N-Metoclopramide]
3. CCN(CCNC(=O)c1cc(Cl)c(N)cc1OC)CCOCCOCCOCCOCCOCCOCCOCCOCCOC [mPEG9-N-Metoclopramide]
4. CCN(CCNC(=O)c1cc(Cl)c(N)cc1OC)CCOCCOC [mPEG2-N-Metoclopramide]

// result
1. 2.12
2. 1.50
3. 2.31
4. 1.47

###

Answer each item with its documented % of Total Metabolism, Rat Hep 4 hr.
- System: Sprague-Dawley rat hepatocytes
- assay text: MetID determination in rat hepatocytes
- Assay type: in vitro ADME
- test conditions: incubation of 10 μM mPEG4-N-metoclopramide; parent and its metabolites M (FIG. 3)
One number for each entry, in %.

{"molecule": "CCN(CCNC(=O)c1cc(Cl)c(N)cc1OC)CCOCCOCCOCCOC [mPEG4-N-Metoclopramide]", "% of Total Metabolism, Rat Hep 4 hr (%)": 16.1}
{"molecule": "CCN(CCNC(=O)c1cc(Cl)c(N)cc1OC)CCOCCOCCO", "% of Total Metabolism, Rat Hep 4 hr (%)": 1.5}
{"molecule": "CCN(CCNC(=O)c1cc(Cl)c(N)cc1OC)CCOCCOCCOCCO", "% of Total Metabolism, Rat Hep 4 hr (%)": 24.8}

// query % of Total Metabolism, Rat Hep 4 hr value for entry CCN(CCNC(=O)c1cc(Cl)c(N)cc1OC)CCOCCO
// result 1.2

###

- test target: 5HT3A receptors (serotonin 3A receptors) (Homo sapiens)
- Construct: expressed in transfected cells
- Sequence (P46098 24-478): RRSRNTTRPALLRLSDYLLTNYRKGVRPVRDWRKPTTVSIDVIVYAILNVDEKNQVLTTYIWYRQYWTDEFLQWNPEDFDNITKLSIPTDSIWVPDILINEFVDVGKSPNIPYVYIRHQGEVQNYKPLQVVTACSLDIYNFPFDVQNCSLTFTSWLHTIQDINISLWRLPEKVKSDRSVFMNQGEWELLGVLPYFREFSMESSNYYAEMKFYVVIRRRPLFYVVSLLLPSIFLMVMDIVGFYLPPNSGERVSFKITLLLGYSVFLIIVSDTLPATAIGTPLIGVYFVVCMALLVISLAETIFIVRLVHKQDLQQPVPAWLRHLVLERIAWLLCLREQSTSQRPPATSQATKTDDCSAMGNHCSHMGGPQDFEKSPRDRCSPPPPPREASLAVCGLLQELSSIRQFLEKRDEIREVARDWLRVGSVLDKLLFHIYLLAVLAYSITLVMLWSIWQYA
- assay text: Competition binding assay (serotonin 3A receptors), [3H]GR65630
- test conditions: IC50 [nM], [3H]GR65630 competition, HEK 293 membranes expressing 5HT3A
readout: IC50 (nM)
Numbers only, in nM.

// query IC50 value for entry CCN(CC)CCNC(=O)c1cc(Cl)c(N)cc1OC [Metoclopramide, reference compound]
// result 6860

###

Answer each item with its documented AUC(0-inf).
- assay text: in vivo
- test conditions: male, Sprague Dawley, rat, plasma, iv, 0.5 mg/kg
Answers are plain numbers, in ng·h/mL.

{"compound": "CCN(CCNC(=O)c1cc(Cl)c(N)cc1OC)CCOCCOCCOCCOC [mPEG4-N-Metoclopramide]", "measure unit": "ng·h/mL", "AUC(0-inf)": 63.5}

Please report AUC(0-inf) for every entry that follows.
1. CCN(CCNC(=O)c1cc(Cl)c(N)cc1OC)CCOCCOCCOCCOCCOCCOCCOCCOC [mPEG8-N-Metoclopramide]
2. CCN(CCNC(=O)c1cc(Cl)c(N)cc1OC)CCOC [mPEG1-N-Metoclopramide]
3. CCN(CC)CCNC(=O)c1cc(Cl)c(N)cc1OC [Metoclopramide, reference compound]

// result
[98.3, 88.3, 66.8]
